FYI, the data here is from ChEMBL document CHEMBL1143296.

Test system: BT-474
method.notes: Antiproliferative activity against human BT474 cells expressing ErbB2 after 72 hrs by CTG assay
setup.conditions: BT-474, 72 h
readout.label: IC50 (µM)

[1] CN(C)Cc1ccc(-c2cc3ncnc(Nc4ccc(OCc5cccc(F)c5)c(Cl)c4)c3s2)o1
[2] CS(=O)(=O)CCNCc1ccc(-c2cc3c(Nc4ccc(OCc5cccc(F)c5)c(Cl)c4)ncnc3s2)o1
[3] Fc1cccc(COc2ccc(Nc3ncnc4sc(-c5cccs5)cc34)cc2Cl)c1 [GW684626B]
stdin: With the 3 compounds above, produce a list ordered by ascending IC50. Order the labels as requested and list them.
stdout: 2, 1, 3
(2: 0.42 µM, 1: 1.88 µM, 3: 3.22 µM)

====

system.tested: Receptor tyrosine-protein kinase erbB-2 (Homo sapiens)
Sequence (P04626 whole entry): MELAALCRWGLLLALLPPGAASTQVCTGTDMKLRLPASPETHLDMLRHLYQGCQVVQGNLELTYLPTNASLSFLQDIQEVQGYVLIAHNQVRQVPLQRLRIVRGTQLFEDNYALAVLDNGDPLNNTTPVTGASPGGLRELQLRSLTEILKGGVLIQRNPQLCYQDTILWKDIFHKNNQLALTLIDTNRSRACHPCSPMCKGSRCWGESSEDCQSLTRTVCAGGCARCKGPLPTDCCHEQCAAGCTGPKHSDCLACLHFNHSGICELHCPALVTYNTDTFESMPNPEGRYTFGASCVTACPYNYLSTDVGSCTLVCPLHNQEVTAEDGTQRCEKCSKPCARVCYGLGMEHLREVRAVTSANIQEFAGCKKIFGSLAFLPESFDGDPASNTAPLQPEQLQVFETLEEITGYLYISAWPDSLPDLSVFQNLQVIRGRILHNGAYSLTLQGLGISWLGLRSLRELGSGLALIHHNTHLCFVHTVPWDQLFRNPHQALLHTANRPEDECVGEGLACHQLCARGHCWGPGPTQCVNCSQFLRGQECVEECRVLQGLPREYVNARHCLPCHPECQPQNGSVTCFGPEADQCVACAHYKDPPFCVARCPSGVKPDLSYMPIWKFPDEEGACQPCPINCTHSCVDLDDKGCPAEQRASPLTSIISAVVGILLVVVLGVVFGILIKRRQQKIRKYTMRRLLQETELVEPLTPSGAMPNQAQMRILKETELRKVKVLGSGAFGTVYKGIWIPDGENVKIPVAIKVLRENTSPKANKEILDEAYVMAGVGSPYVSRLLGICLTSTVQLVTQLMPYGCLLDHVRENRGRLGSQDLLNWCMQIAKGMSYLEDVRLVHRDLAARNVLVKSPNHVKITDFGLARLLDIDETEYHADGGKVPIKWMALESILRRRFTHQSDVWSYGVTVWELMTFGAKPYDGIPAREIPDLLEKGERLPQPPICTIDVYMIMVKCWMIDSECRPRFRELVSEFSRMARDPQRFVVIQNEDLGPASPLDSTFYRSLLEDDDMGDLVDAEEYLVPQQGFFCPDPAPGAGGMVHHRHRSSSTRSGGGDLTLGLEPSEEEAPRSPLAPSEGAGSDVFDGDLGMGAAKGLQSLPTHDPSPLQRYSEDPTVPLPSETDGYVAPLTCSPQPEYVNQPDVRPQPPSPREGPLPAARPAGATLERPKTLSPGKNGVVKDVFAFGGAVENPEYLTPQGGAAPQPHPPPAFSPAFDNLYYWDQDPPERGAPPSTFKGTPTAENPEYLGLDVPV
method.notes: Inhibition of ErbB2 intracellular autophosphorylation of ErbB2 in human BT474 cells by DELFIA assay
Type: cell-based, BT-474
readout.label: IC50 (nM)

[I] Fc1cccc(COc2ccc(Nc3ncnc4cc(-c5ccc[nH]5)sc34)cc2Cl)c1
[II] CS(=O)(=O)CCNCc1ccc(-c2cc3ncnc(Nc4ccc(OCc5cccc(F)c5)c(Cl)c4)c3s2)[nH]1
stdin: Lab note: check whether I or II shows the higher recorded IC50. Please indicate the selected item by its label.
stdout: I

====

Test system: BT-474
method.notes: Antiproliferative activity against human BT474 cells expressing ErbB2 after 72 hrs by CTG assay
setup.conditions: BT-474, 72 h
readout.label: IC50 (µM)

[I] Fc1cccc(COc2ccc(Nc3ncnc4cc(-c5ccco5)sc34)cc2Cl)c1
[II] CS(=O)(=O)CCNCc1ccc(-c2cc3ncnc(Nc4ccc(OCc5cccc(F)c5)c(Cl)c4)c3s2)[nH]1
[III] Fc1cccc(COc2ccc(Nc3ncnc4cc(-c5cccs5)sc34)cc2Cl)c1
[IV] CS(=O)(=O)CCNCc1ccc(-c2cc3ncnc(Nc4ccc(OCc5cccc(F)c5)c(Cl)c4)c3s2)o1
stdin: With the 4 molecules above, produce a list ordered by ascending IC50. Order the labels as requested and list them.
stdout: IV, II, III, I
(IV: 0.42 µM, II: 0.63 µM, III: 5.77 µM, I: 21.2 µM)

====

Tested on: HFF
method.notes: Antiproliferative activity against HFF after 72 hrs by CTG assay
setup.conditions: Homo sapiens
Below, each of the molecules is paired with its reported pIC50 value.
Quick note: pIC50 means taking -log10 of the concentration in moles per liter.

Record excerpt, results attached:
stdin: For the molecule CS(=O)(=O)CCNCc1ccc(-c2cc3c(Nc4ccc(OCc5cccc(F)c5)c(Cl)c4)ncnc3s2)o1 , report pIC50.
stdout: 4.71

stdin: For the molecule CN(C)Cc1ccc(-c2cc3ncnc(Nc4ccc(OCc5cccc(F)c5)c(Cl)c4)c3s2)o1 , report pIC50.
stdout: 5.35

stdin: For the molecule CS(=O)(=O)CCNCc1ccc(-c2cc3ncnc(Nc4ccc(OCc5cccc(F)c5)c(Cl)c4)c3s2)[nH]1 , report pIC50.
stdout: 5.43

stdin: For the molecule Fc1cccc(COc2ccc(Nc3ncnc4cc(-c5cccs5)sc34)cc2Cl)c1 , report pIC50.
stdout: 4.97

--- query ---
stdin: For the molecule Fc1cccc(COc2ccc(Nc3ncnc4sc(-c5cccs5)cc34)cc2Cl)c1 [GW684626B] , report pIC50.
stdout: 5.01
